# Tested on: Human immunodeficiency virus 1
# assay method text: Antiviral activity against wild type HIV-1 LAI infected in human MT4 cells assessed as protection against virus-induced cell death after 5 days by MTT assay
# Type: functional, organism-based
# condition set: Human immunodeficiency virus 1, LAI, MT4, 120 h
Measured pIC50 accompanies every entry in the list below.
// field semantics: pIC50 = negative decimal log of concentration (mol/L)

Answered examples (2):
Asked: Please provide the recorded pIC50 for CN(C)c1c(Oc2cc(Cl)cc(C#N)c2)cc(CC(=O)N2CCc3ccccc3C2)[nH]c1=O , tested on Human immunodeficiency virus 1.
Given back: 7.46

Asked: Please provide the recorded pIC50 for N#Cc1cc(Cl)cc(Oc2c(F)c(CC(=O)N3CCc4ccccc4C3)[nH]c(=O)c2Br)c1 , tested on Human immunodeficiency virus 1.
Given back: 7.30

In the following, a different compound is considered.
Asked: Please provide the recorded pIC50 for N#Cc1cc(Cl)cc(Oc2cc(CC(=O)N3CCc4ccccc4C3)[nH]c(=O)c2Cl)c1 , tested on Human immunodeficiency virus 1.
Given back: 7.46

---

# tested system: Human immunodeficiency virus type 1 reverse transcriptase (Human immunodeficiency virus 1, UniProt Q72547, Y181C)
# assay method text: Inhibition of polymerase activity of NNRTI-resistant HIV-1 LAI reverse transcriptase Y181C mutant
pIC50: −log10 of the molar value.
Short version: pIC50 at least 8 is T, less is F.

Asked: Quick check: does Cc1[nH]c(=O)c(Cl)c(Oc2cc(Cl)cc(C#N)c2)c1CCCc1ccncc1 have pIC50 greater than or equal to 8?
Given back: T

Asked: Quick check: does N#Cc1cc(Cl)cc(Oc2cc(CCc3ccccn3)[nH]c(=O)c2Cl)c1 have pIC50 greater than or equal to 8?
Given back: F

Asked: Quick check: does N#Cc1cc(Cl)cc(Oc2cc(CCc3cccnc3)[nH]c(=O)c2Cl)c1 have pIC50 greater than or equal to 8?
Given back: F

Asked: Quick check: does N#Cc1cc(Cl)cc(Oc2c(F)c(CCc3ccncc3)[nH]c(=O)c2Br)c1 have pIC50 greater than or equal to 8?
Given back: T

Others:
Asked: Quick check: does N#Cc1cc(Cl)cc(Oc2c(Cc3ccccc3)c[nH]c(=O)c2Br)c1 have pIC50 greater than or equal to 8?
Given back: F

Asked: Quick check: does N#Cc1cc(Cl)cc(Oc2cc(CCc3nc4ccccc4o3)[nH]c(=O)c2Cl)c1 have pIC50 greater than or equal to 8?
Given back: T

Asked: Quick check: does N#Cc1cc(Cl)cc(Oc2cc(CCc3ccncc3)[nH]c(=O)c2Cl)c1 have pIC50 greater than or equal to 8?
Given back: F

---

# System: Human immunodeficiency virus 1
# assay method text: Antiviral activity against NNRTI-resistant HIV-1 LAI harboring reverse transcriptase K103N mutant infected in human MT4 cells assessed as inhibition of viral replication after 5 days by MTT assay
# Type: functional, organism-based
# condition set: Human immunodeficiency virus 1, LAI, MT4, 120 h
Measured pIC50 accompanies every entry in the list below.
// field semantics: pIC50 = negative decimal log of concentration (mol/L)

Answered examples (2):
Asked: GET /values?readout=pIC50&item= O=C1Nc2ccc(Cl)cc2[C@@](C#CC2CC2)(C(F)(F)F)O1
Given back: 7.19

Asked: GET /values?readout=pIC50&item= Cc1[nH]c(=O)c(Br)c(Oc2cc(Cl)cc(C#N)c2)c1Cc1ccccc1
Given back: 7.80

Others:
Asked: GET /values?readout=pIC50&item= Cc1[nH]c(=O)c(Cl)c(Oc2cc(Cl)cc(C#N)c2)c1CCOc1ccccc1
Given back: 7.62

Asked: GET /values?readout=pIC50&item= N#Cc1cc(Cl)cc(Oc2c(COCc3ccncc3)c[nH]c(=O)c2Br)c1
Given back: 7.89

---

Measured IC50 accompanies every entry in the list below.
# tested system: Human immunodeficiency virus type 1 reverse transcriptase (Human immunodeficiency virus 1, UniProt Q72547)
Answer in nM, number only, no unit symbol.

Answered examples (6):
Asked: GET /values?readout=IC50&item= N#Cc1cc(Cl)cc(Oc2c(CCOc3cccnc3)c[nH]c(=O)c2Br)c1
Given back: 11

Asked: GET /values?readout=IC50&item= Cc1[nH]c(=O)c(Cl)c(Oc2cc(Cl)cc(C#N)c2)c1CCCc1ccncc1
Given back: 4

Asked: GET /values?readout=IC50&item= N#Cc1cc(Cl)cc(Oc2c(F)c(CC(=O)N3CCc4ccccc4C3)[nH]c(=O)c2Br)c1
Given back: 12

Asked: GET /values?readout=IC50&item= N#Cc1cc(Cl)cc(Oc2c(F)c(CCc3ccncc3)[nH]c(=O)c2Br)c1
Given back: 2

Asked: GET /values?readout=IC50&item= N#Cc1cc(Cl)cc(Oc2c(CCOc3ccncc3)c[nH]c(=O)c2Br)c1
Given back: 10

Asked: GET /values?readout=IC50&item= N#Cc1cc(Cl)cc(Oc2cc(CCc3cccc(Cl)c3)[nH]c(=O)c2Cl)c1
Given back: 12

Others:
Asked: GET /values?readout=IC50&item= CN(C)c1c(Oc2cc(Cl)cc(C#N)c2)cc(CC(=O)N2CCc3ccccc3C2)[nH]c1=O
Given back: 220

Asked: GET /values?readout=IC50&item= N#Cc1cc(Cl)cc(Oc2c(COCc3ccncc3)c[nH]c(=O)c2Br)c1
Given back: 21

Asked: GET /values?readout=IC50&item= N#Cc1cc(Cl)cc(Oc2cc(CCc3ccccn3)[nH]c(=O)c2Cl)c1
Given back: 21

Asked: GET /values?readout=IC50&item= N#Cc1cc(Cl)cc(Oc2cc(CCc3cccnc3)[nH]c(=O)c2Cl)c1
Given back: 22

Asked: GET /values?readout=IC50&item= N#Cc1cc(Cl)cc(Oc2cc(CC(=O)N3CCc4ccccc4C3)[nH]c(=O)c2Cl)c1
Given back: 30

Asked: GET /values?readout=IC50&item= N#Cc1cc(Cl)cc(Oc2c(Cc3ccccc3)c[nH]c(=O)c2Br)c1
Given back: 34

Asked: GET /values?readout=IC50&item= N#Cc1cc(Cl)cc(Oc2c(F)c(CCc3cccc(Cl)c3)[nH]c(=O)c2Br)c1
Given back: 17

---

Measured IC50 accompanies every entry in the list below.
# tested system: Human immunodeficiency virus type 1 reverse transcriptase (Human immunodeficiency virus 1, UniProt Q72547, Y181C)
# assay method text: Inhibition of polymerase activity of NNRTI-resistant HIV-1 LAI reverse transcriptase Y181C mutant
Answer in nM, number only, no unit symbol.

Asked: GET /values?readout=IC50&item= N#Cc1cc(Cl)cc(Oc2cc(CCc3cccc(Cl)c3)[nH]c(=O)c2Cl)c1
Given back: 7

Asked: GET /values?readout=IC50&item= N#Cc1cc(Cl)cc(Oc2c(COCc3ccncc3)c[nH]c(=O)c2Br)c1
Given back: 11

Asked: GET /values?readout=IC50&item= N#Cc1cc(Cl)cc(Oc2c(CCOc3ccncc3)c[nH]c(=O)c2Br)c1
Given back: 8

Asked: GET /values?readout=IC50&item= N#Cc1cc(Cl)cc(Oc2c(F)c(CCc3cccc(Cl)c3)[nH]c(=O)c2Br)c1
Given back: 8

---

# tested system: Human immunodeficiency virus type 1 reverse transcriptase (Human immunodeficiency virus 1)
reported property: pIC50
// field semantics: pIC50 = negative decimal log of concentration (mol/L)

Answered examples (5):
Asked: GET /values?readout=pIC50&item= Cc1[nH]c(=O)c(Cl)c(Oc2cc(Cl)cc(C#N)c2)c1CCOc1ccccc1
Given back: 8.22

Asked: GET /values?readout=pIC50&item= N#Cc1cc(Cl)cc(Oc2cc(CCc3ccncc3)[nH]c(=O)c2Cl)c1
Given back: 7.72

Asked: GET /values?readout=pIC50&item= N#Cc1cc(Cl)cc(Oc2cc(CCc3ccccc3)[nH]c(=O)c2Cl)c1
Given back: 8.10

Asked: GET /values?readout=pIC50&item= N#Cc1cc(Cl)cc(Oc2cc(CCc3nc4ccccc4o3)[nH]c(=O)c2Cl)c1
Given back: 8.22

Asked: GET /values?readout=pIC50&item= Cc1[nH]c(=O)c(Br)c(Oc2cc(Cl)cc(C#N)c2)c1Cc1ccccc1
Given back: 8.00

In the following, a different compound is considered.
Asked: GET /values?readout=pIC50&item= N#Cc1cc(Cl)cc(Oc2c(F)c(CCc3ccccc3)[nH]c(=O)c2Cl)c1
Given back: 8.15

---

# tested system: Human immunodeficiency virus type 1 reverse transcriptase (Human immunodeficiency virus 1, UniProt Q72547, Y181C)
# assay method text: Inhibition of polymerase activity of NNRTI-resistant HIV-1 LAI reverse transcriptase Y181C mutant
Measured pIC50 accompanies every entry in the list below.
// field semantics: pIC50 = negative decimal log of concentration (mol/L)

Answered examples (2):
Asked: GET /values?readout=pIC50&item= Cc1[nH]c(=O)c(Cl)c(Oc2cc(Cl)cc(C#N)c2)c1CCOc1ccccc1
Given back: 8.22

Asked: GET /values?readout=pIC50&item= N#Cc1cc(Cl)cc(Oc2c(CCOc3cccnc3)c[nH]c(=O)c2Br)c1
Given back: 8.10

In the following, a different compound is considered.
Asked: GET /values?readout=pIC50&item= Cc1[nH]c(=O)c(Br)c(Oc2cc(Cl)cc(C#N)c2)c1Cc1ccccc1
Given back: 8.10
